// merged dataset of pKi values, system = the protein given by its sequence, multiple refs
Target sequence: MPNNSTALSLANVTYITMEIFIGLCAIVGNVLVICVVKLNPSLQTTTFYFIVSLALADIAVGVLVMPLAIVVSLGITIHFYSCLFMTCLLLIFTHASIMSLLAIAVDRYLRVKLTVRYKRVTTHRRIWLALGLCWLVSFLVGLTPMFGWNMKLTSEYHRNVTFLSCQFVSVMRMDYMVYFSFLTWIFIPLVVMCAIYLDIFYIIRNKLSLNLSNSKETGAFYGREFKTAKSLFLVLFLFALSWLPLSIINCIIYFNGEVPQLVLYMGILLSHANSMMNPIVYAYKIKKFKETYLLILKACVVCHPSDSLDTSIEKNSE
# reply with the number alone; pKi is -log10 of concentration in mol/L

Example entries and their recorded answers appear below.
- smiles record: "CC(C)C/C=N/Nc1nc(N)c2ncn([C@@H]3O[C@H](CO)[C@@H](O)[C@H]3O)c2n1"
  recorded value: 7.42
- smiles record: "CNC(=O)[C@@]12C[C@@H]1[C@@H](n1cnc3c(NCCc4ccc(O)c(O)c4)nc(C#Cc4ccc(Br)s4)nc31)[C@H](O)[C@@H]2O"
  recorded value: 7.20
- smiles record: "c1ccc(CNc2nc3ccccc3c3cn(-c4ccccc4)nc23)cc1"
  recorded value: 7.45

Now for another entry.
# input Look at this molecule and give its reported pKi. COc1ccn2c(c1)nc1c2c(=O)n(CC2CC2)c(=O)n1Cc1ccc(Cl)c(Cl)c1
# output 8.28

---

// merged dataset of pKi values, system = UniProtKB P0DMS8, multiple refs
# reply with the number alone; pKi is -log10 of concentration in mol/L

Example entries and their recorded answers appear below.
- smiles record: "O=C(Nc1nc(-c2ccccc2)c(-c2nc3ccccc3c(=O)n2-c2ccccc2)s1)c1ccccc1"
  subject of test: "UniProtKB P0DMS8"
  pKi: 6.95
- smiles record: "O=C(Nc1nc2ccccc2n2c(=O)n(-c3ccc([N+](=O)[O-])cc3)nc12)c1ccccc1"
  subject of test: "UniProtKB P0DMS8"
  pKi: 7.00
- smiles record: "O=C(Nc1nc2ccccc2c2cn(-c3ccccc3)nc12)c1ccccc1"
  subject of test: "UniProtKB P0DMS8"
  pKi: 8.68
- smiles record: "c1ccc(-c2nc(-c3ccccc3)c3nc(C4CCCCC4)nc-3[nH]2)cc1"
  subject of test: "UniProtKB P0DMS8"
  pKi: 6.70
- smiles record: "CC(=O)Nc1nc2c(N)cccc2n2c(=O)n(-c3ccccc3)nc12"
  subject of test: "UniProtKB P0DMS8"
  pKi: 7.32
- smiles record: "COc1ccc(Cn2c(=O)n(CC3CC3)c(=O)c3c2nc2cc(OC)ccn23)cc1"
  subject of test: "UniProtKB P0DMS8"
  pKi: 8.85

# input Lookup: pKi / UniProtKB P0DMS8 / COc1ccc(C(=O)Nc2nc(-c3ccccn3)cs2)cc1
# output 5.74

---

subject of test: Adenosine receptor A3 (Homo sapiens, UniProt P0DMS8)
Sequence (P0DMS8 whole entry): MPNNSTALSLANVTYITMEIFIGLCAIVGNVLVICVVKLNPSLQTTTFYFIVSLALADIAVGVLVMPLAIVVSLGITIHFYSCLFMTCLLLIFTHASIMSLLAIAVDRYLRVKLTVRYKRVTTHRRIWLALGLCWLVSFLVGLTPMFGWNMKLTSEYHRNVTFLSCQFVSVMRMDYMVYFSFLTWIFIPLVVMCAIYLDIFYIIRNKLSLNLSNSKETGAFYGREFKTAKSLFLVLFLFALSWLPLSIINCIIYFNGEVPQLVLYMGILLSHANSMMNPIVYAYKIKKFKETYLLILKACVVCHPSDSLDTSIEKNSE
// merged dataset of pKi values, system = Adenosine receptor A3 (Homo sapiens, UniProt P0DMS8), multiple refs
# reply with the number alone; pKi is -log10 of concentration in mol/L

# input Look at this compound and give its reported pKi. O=C(Cc1ccccc1)Nc1nc(-c2cccs2)nc2cn(-c3ccccc3)nc12
# output 8.45

# input Look at this compound and give its reported pKi. O=C(Nc1nc(-c2ccccc2)c(C(=O)c2cccnc2)s1)c1ccco1
# output 5.73

# input Look at this compound and give its reported pKi. Nc1nc(OCCc2ccccc2F)nc2c1ncn2[C@@H]1O[C@H](CO)[C@@H](O)[C@H]1O
# output 7.11

# input Look at this compound and give its reported pKi. O=c1c(-c2ccco2)nnc2n(-c3ccc(Cl)cc3)c3ccccc3n12
# output 6.15

# input Look at this compound and give its reported pKi. CCNC(=O)[C@H]1O[C@@H](n2cnc3c(NC)nc(-n4cc(CC5CCCC5)nn4)nc32)[C@H](O)[C@@H]1O
# output 7.94
